B1: library; a variant is named by its letters at N, in order (parent)
chain: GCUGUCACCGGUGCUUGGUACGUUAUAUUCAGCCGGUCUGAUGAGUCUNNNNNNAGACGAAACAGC

- Variants of: B1
- Assay Comment: normalized RNA/DNA level without ligand (relative to sTRSVctl = 100) (log10 (% of sTRSVctl)); HEK293T overexpressing SLC46A1; higher = less ribozyme self-cleavage, higher mRNA level
- Cond: without (6R,S)-folinic acid; ligand present: no
Can you tell me normalized RNA/DNA level without ligand (log10) for the items I'm about to list?

Asked: Please look up its normalized RNA/DNA level without ligand (log10): GCUGUCACCGGUGCUUGGUACGUUAUAUUCAGCCGGUCUGAUGAGUCUGGAGUGAGACGAAACAGC [GGAGUG]
Given back: 1.91

Asked: Which normalized RNA/DNA level without ligand (log10) value belongs to GCUGUCACCGGUGCUUGGUACGUUAUAUUCAGCCGGUCUGAUGAGUCUUGGGGAAGACGAAACAGC [UGGGGA] ?
Given back: 1.84

Asked: Tell me the measured normalized RNA/DNA level without ligand (log10) of GCUGUCACCGGUGCUUGGUACGUUAUAUUCAGCCGGUCUGAUGAGUCUUGCUGGAGACGAAACAGC [UGCUGG] , please.
Given back: 1.85

Asked: Reported normalized RNA/DNA level without ligand (log10) for GCUGUCACCGGUGCUUGGUACGUUAUAUUCAGCCGGUCUGAUGAGUCUGCUAUAAGACGAAACAGC [GCUAUA] : what is it?
Given back: 1.98

Asked: # normalized RNA/DNA level without ligand (log10) lookup, item GCUGUCACCGGUGCUUGGUACGUUAUAUUCAGCCGGUCUGAUGAGUCUAAACUGAGACGAAACAGC [AAACUG]
Given back: 1.93

Asked: // normalized RNA/DNA level without ligand (log10) lookup, key: GCUGUCACCGGUGCUUGGUACGUUAUAUUCAGCCGGUCUGAUGAGUCUCCACGGAGACGAAACAGC [CCACGG]
Given back: 2.06

Asked: Recorded normalized RNA/DNA level without ligand (log10) of GCUGUCACCGGUGCUUGGUACGUUAUAUUCAGCCGGUCUGAUGAGUCUUUUCGUAGACGAAACAGC [UUUCGU] , please.
Given back: 1.98

Asked: I would be grateful if you could share the reported normalized RNA/DNA level without ligand (log10) for GCUGUCACCGGUGCUUGGUACGUUAUAUUCAGCCGGUCUGAUGAGUCUUAUAACAGACGAAACAGC [UAUAAC] .
Given back: 1.98

Asked: I have this variant here, GCUGUCACCGGUGCUUGGUACGUUAUAUUCAGCCGGUCUGAUGAGUCUGCCGUCAGACGAAACAGC [GCCGUC] , and I need its recorded normalized RNA/DNA level without ligand (log10).
Given back: 2.08

Asked: Item GCUGUCACCGGUGCUUGGUACGUUAUAUUCAGCCGGUCUGAUGAGUCUACGAAUAGACGAAACAGC [ACGAAU] has what recorded normalized RNA/DNA level without ligand (log10)?
Given back: 1.95

Asked: Can you look up the measured normalized RNA/DNA level without ligand (log10) of GCUGUCACCGGUGCUUGGUACGUUAUAUUCAGCCGGUCUGAUGAGUCUCAGAUUAGACGAAACAGC [CAGAUU] for me?
Given back: 2

Asked: Look at this variant and give its reported normalized RNA/DNA level without ligand (log10). GCUGUCACCGGUGCUUGGUACGUUAUAUUCAGCCGGUCUGAUGAGUCUAUAACCAGACGAAACAGC [AUAACC]
Given back: 2.01

Asked: What value of normalized RNA/DNA level without ligand (log10) has been recorded for this entry: GCUGUCACCGGUGCUUGGUACGUUAUAUUCAGCCGGUCUGAUGAGUCUGCGCUGAGACGAAACAGC [GCGCUG]
Given back: 2.11

Asked: Requested read-out: normalized RNA/DNA level without ligand (log10). Entry: GCUGUCACCGGUGCUUGGUACGUUAUAUUCAGCCGGUCUGAUGAGUCUUGCUUCAGACGAAACAGC [UGCUUC]
Given back: 2.04

Asked: Dear colleague, I am looking for the recorded normalized RNA/DNA level without ligand (log10) of the following variant: GCUGUCACCGGUGCUUGGUACGUUAUAUUCAGCCGGUCUGAUGAGUCUGGUGGUAGACGAAACAGC [GGUGGU]
Given back: 2.05

Asked: Data request, read-out normalized RNA/DNA level without ligand (log10), for GCUGUCACCGGUGCUUGGUACGUUAUAUUCAGCCGGUCUGAUGAGUCUAGUCAGAGACGAAACAGC [AGUCAG]
Given back: 1.97

Asked: Form field: reported normalized RNA/DNA level without ligand (log10) of GCUGUCACCGGUGCUUGGUACGUUAUAUUCAGCCGGUCUGAUGAGUCUACGGAUAGACGAAACAGC [ACGGAU]
Given back: 1.94

Asked: Could you tell me which normalized RNA/DNA level without ligand (log10) is on file for GCUGUCACCGGUGCUUGGUACGUUAUAUUCAGCCGGUCUGAUGAGUCUACAAUGAGACGAAACAGC [ACAAUG] ?
Given back: 1.96

Asked: GET /values?readout=normalized RNA/DNA level without ligand (log10)&item= GCUGUCACCGGUGCUUGGUACGUUAUAUUCAGCCGGUCUGAUGAGUCUACUUAUAGACGAAACAGC [ACUUAU]
Given back: 1.99

Asked: Would you kindly share the measured normalized RNA/DNA level without ligand (log10) for GCUGUCACCGGUGCUUGGUACGUUAUAUUCAGCCGGUCUGAUGAGUCUAUUUUCAGACGAAACAGC [AUUUUC] ?
Given back: 2.03

Asked: I would be grateful if you could share the reported normalized RNA/DNA level without ligand (log10) for GCUGUCACCGGUGCUUGGUACGUUAUAUUCAGCCGGUCUGAUGAGUCUCGCUACAGACGAAACAGC [CGCUAC] .
Given back: 2.01

Asked: Report normalized RNA/DNA level without ligand (log10) for GCUGUCACCGGUGCUUGGUACGUUAUAUUCAGCCGGUCUGAUGAGUCUGGCAUUAGACGAAACAGC [GGCAUU] please.
Given back: 2.08

Numbers sourced from the supplement of paper PMC6757056.
